Each entry below carries its recorded pIC50.
System under test: UniProt:P23977
Sequence (P23977 whole entry): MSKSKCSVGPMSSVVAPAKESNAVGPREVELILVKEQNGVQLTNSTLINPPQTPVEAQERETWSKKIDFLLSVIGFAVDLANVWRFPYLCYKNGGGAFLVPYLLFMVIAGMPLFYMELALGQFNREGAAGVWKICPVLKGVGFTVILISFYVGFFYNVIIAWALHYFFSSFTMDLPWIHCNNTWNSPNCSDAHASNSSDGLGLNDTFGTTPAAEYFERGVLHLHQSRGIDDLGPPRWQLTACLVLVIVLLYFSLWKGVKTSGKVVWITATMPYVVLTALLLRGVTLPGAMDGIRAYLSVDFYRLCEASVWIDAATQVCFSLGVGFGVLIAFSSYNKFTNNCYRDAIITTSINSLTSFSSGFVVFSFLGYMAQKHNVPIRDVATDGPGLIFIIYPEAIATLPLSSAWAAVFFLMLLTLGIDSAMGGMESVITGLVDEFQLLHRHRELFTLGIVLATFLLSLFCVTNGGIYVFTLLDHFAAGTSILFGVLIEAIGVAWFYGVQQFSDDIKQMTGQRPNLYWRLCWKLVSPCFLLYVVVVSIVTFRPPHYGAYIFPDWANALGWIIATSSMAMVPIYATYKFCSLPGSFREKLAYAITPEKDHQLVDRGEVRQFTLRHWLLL
Here pIC50 is given on a logarithmic scale as minus log10 of the concentration in mol/L.

Worked examples follow.
CN1C2CC[C@@H]1C[C@@H](c1ccc(F)cc1)[C@@H]2COc1ccc2c(c1)OCO2
8.52
Fc1ccc([C@@H]2CC3CCC(N3)[C@@H]2COc2ccc3c(c2)OCO3)cc1 (some centres undefined)
7.56
Fc1ccc([C@H]2CC3CCC(N3)[C@H]2COc2ccc3c(c2)OCO3)cc1 (stereo in doubt; 4f)
6.39

Turning now to a further compound:
Q. Specify pIC50 for CN1C2CC[C@@H]1C[C@H](c1ccc(F)cc1)[C@@H]2COc1ccc2c(c1)OCO2 , system UniProt:P23977.
A. 6.51
